# ASSAY OVERVIEW: Primary qHTS for delayed death inhibitors of the malarial parasite plastid, 96 hour incubation
# COND: P. falciparum luciferase reporter growth; series mostly up to 28.7 µM
Screen size: about 320,000 compounds; about 22,000 (6.9%) were called active. Another 27% or so got no clear call; they are omitted. Calls follow the shape of the dose curve; as a rule, active = well fitted inhibition curve with a large enough effect; inconclusive = small, poorly fitted or top-dose-only effect, or another doubt; inactive = no such curve, though single readings can be large or run the other way. This excerpt belongs to a sample that is enriched for actives.
Select the correct class. Options are active, inactive and nothing else.

Sample answers from the record:
compound=COc1ccc(/C=C/C(=O)Nc2ccc3c(c2)OCCO3)cc1OC assigned_category=inactive
compound="CCCn1nnc2sc3c(c2c1=O)CCC(C)C3 (stereo not given)" assigned_category=active
compound=COc1ccc(NS(=O)(=O)c2cc(NC(=O)/C=C/c3cc(OC)c(OC)c(OC)c3)ccc2N2CCCCC2)cc1 assigned_category=active
compound="N#CC1=C(N)OC2=C(C(=O)CCC2)C1C1CC=CCC1 (stereo not given)" assigned_category=inactive
compound=Cn1nc(C(F)(F)F)cc1C(=O)O assigned_category=inactive

INPUT: Outcome logged for COc1cccc(NC(=O)N2C3CCCC2CC(NC(C)=O)C3)c1 (stereo not given) in this assay:
OUTPUT: inactive

INPUT: What classification did "O=C(Nc1ccccc1)N(Cc1cccnc1)Cc1ccco1" end up with in this test?
OUTPUT: inactive

INPUT: Recorded test call requested for "Cc1ccc2nc(N(CCN(C)C)C(=O)C3=COCCO3)sc2c1"
OUTPUT: inactive

INPUT: Can you look up the reported call for CC(Oc1cccc(Cl)c1)C(=O)Nc1ccc(S(=O)(=O)Nc2ncccn2)cc1 (stereo not given) for me?
OUTPUT: inactive

INPUT: Dear all, I need the recorded test outcome for COc1ccc(C(CNC(=O)c2ccc(NS(=O)(=O)c3ccc(F)c(C)c3)cc2)N(C)C)cc1 (stereo not given) , thank you.
OUTPUT: inactive

INPUT: Fill in: this test's call for "COc1ccc(NS(=O)(=O)c2ccc(N3CCN(CCO)CC3)c([N+](=O)[O-])c2)cc1" is ___
OUTPUT: inactive

INPUT: I'd appreciate the recorded outcome for CC1CC(C)CN(CCCNC(=O)Cn2ncc3c([nH]c4ccccc43)c2=O)C1 (stereo not given) from this test.
OUTPUT: inactive

* * *

# ASSAY OVERVIEW: Primary qHTS for delayed death inhibitors of the malarial parasite plastid, 96 hour incubation
# COND: P. falciparum luciferase reporter growth; series mostly up to 28.7 µM
Screen size: about 320,000 compounds; about 22,000 (6.9%) were called active. Not shown: some 27% with an inconclusive outcome. Calls follow the shape of the dose curve; as a rule, active = well fitted inhibition curve with a large enough effect; inconclusive = small, poorly fitted or top-dose-only effect, or another doubt; inactive = no such curve, though single readings can be large or run the other way. The full list was thinned out, with actives kept by preference.
Give your call using only these classes: active, inactive

compound=Cn1c(=O)[nH]c(=O)c2c1[nH]c(=S)n2Cc1ccccc1 assigned_category=inactive
compound=O=C(COC(=O)c1ccccn1)NNC(=O)c1ccc([N+](=O)[O-])cc1 assigned_category=inactive
compound=CCc1nn(CC(=O)N2CCN(CC)CC2)c(=O)c2cccn12 assigned_category=inactive

INPUT: Fill in: this test's call for "Cc1ccc2[nH]c(=O)c(CN(C)S(=O)(=O)c3cccc4nonc34)cc2c1" is ___
OUTPUT: inactive

INPUT: Which outcome was entered for the compound "C=CCc1cccc(/C=N/NC(=O)COc2ccc(-n3cnnn3)cc2)c1O" in this test?
OUTPUT: inactive

* * *

# ASSAY OVERVIEW: Primary qHTS for delayed death inhibitors of the malarial parasite plastid, 96 hour incubation
# COND: P. falciparum luciferase reporter growth; series mostly up to 28.7 µM
# Excerpt: The goal of this screen is to discover new antimalarial compounds that act by inhibiting the development of the apicoplast in the malarial parasite Plasmodium falciparum. […] We have developed a cell-based assay that measures parasite growth based on the expression of an integrated copy of a firefly luciferase reporter. […] Growth inhibition is detected by a decrease in luciferase activity. […]
About 22,000 (6.9%) of roughly 320,000 compounds were called active. Inconclusive results (about 27%) are left out. The call rests on the fitted dose curve; in most records, active means well fitted inhibition curve with a large enough effect; inconclusive means small, poorly fitted or top-dose-only effect, or another doubt; inactive means no such curve, though single readings can be large or run the other way. This excerpt belongs to a sample that is enriched for actives.
Output constraint: value belongs to TRUE = active, FALSE = inactive

compound=CN1/C(=c2/s/c(=C3/C(=O)N(c4ccccc4)NC3=Nc3ccccc3)n(C)c2=O)C(C)(C)c2ccccc21 assigned_category=TRUE
compound=O=C(Nc1cccnc1)c1cccc(S(=O)(=O)N2CCCC2)c1 assigned_category=FALSE
compound="CC(CCc1ccccc1)NC(=O)c1cnc(Cl)c(Cl)c1 (stereo not given)" assigned_category=FALSE
compound=O=C(NNC(=O)c1cnccc1C(F)(F)F)c1ccc(Cl)cc1 assigned_category=FALSE
compound=CCN1C(=O)/C(=c2\s/c(=C3\Sc4ccccc4N3C)c(=O)n2C)N(C)C1=S assigned_category=FALSE
compound=C[n+]1cc(-c2ccccc2)oc1-c1ccccc1 assigned_category=FALSE
compound="COc1ccc(C(=O)C2CCCN(Cc3ccc4nonc4c3)C2)c(C)c1 (stereo not given)" assigned_category=FALSE
compound=C/C(=N\N(C)C)c1ccc(OCCOc2ccc([N+](=O)[O-])cc2)cc1 assigned_category=FALSE

INPUT: Assay result, entry "Cc1cnc(NC(=O)CSc2nnc(C)s2)s1" — outcome?
OUTPUT: FALSE

INPUT: What is the recorded call for this compound in the test? NC(=O)C1CCN(CC(O)CSc2ccc(F)cc2)CC1 (stereo not given)
OUTPUT: FALSE

INPUT: For "CCOC(=O)c1cc(NC(=O)c2cccnc2)cc(C(=O)OCC)c1" , which call appears in the assay record?
OUTPUT: FALSE

INPUT: For "Cc1ccc(C(=O)CCC(=O)N(C)CC(=O)Nc2c(Cl)cccc2Cl)cc1" , what call appears in the results of this test?
OUTPUT: FALSE

* * *

# ASSAY OVERVIEW: Primary qHTS for delayed death inhibitors of the malarial parasite plastid, 96 hour incubation
# COND: P. falciparum luciferase reporter growth; series mostly up to 28.7 µM
# Source text: The goal of this screen is to discover new antimalarial compounds that act by inhibiting the development of the apicoplast in the malarial parasite Plasmodium falciparum. […] We have developed a cell-based assay that measures parasite growth based on the expression of an integrated copy of a firefly luciferase reporter. […] Growth inhibition is detected by a decrease in luciferase activity. […]
Out of some 320,000 compounds screened, about 22,000 (6.9%) were called active. Roughly 27% stayed inconclusive and do not appear here. The call rests on the fitted dose curve; in most records, active means well fitted inhibition curve with a large enough effect; inconclusive means small, poorly fitted or top-dose-only effect, or another doubt; inactive means no such curve, though single readings can be large or run the other way. The sample as a whole holds a higher share of actives than the screen did.
Lab note: assign the record to one of 1.0 (active), 0.0 (inactive)

compound=O=S(=O)(Cc1nnnn1-c1ccc(Br)cc1)c1ccc(F)cc1 assigned_category=0.0
compound=Oc1ccc(N=Nc2nccs2)c(O)c1 assigned_category=1.0
compound=Cc1cc(C)c(C#N)c(Nc2cccc(Br)c2)n1 assigned_category=0.0
compound=Cc1cccc(N2CCN(c3ccc(C(N)=O)cc3[N+](=O)[O-])CC2)c1C assigned_category=0.0
compound=Cc1ccccc1NC(=O)CCNS(=O)(=O)c1ccc2[nH]c(=O)oc2c1 assigned_category=0.0

INPUT: Just curious, what result did "COC(=O)c1ccc(CSc2nncn2C)cc1" get here?
OUTPUT: 0.0

INPUT: # outcome recorded in this test, key = "CCCCn1c(-c2cccc(C)c2)nc2cc3[nH]c(=O)c(C(C)C)nc3cc21"
OUTPUT: 1.0

* * *

# ASSAY OVERVIEW: Primary qHTS for delayed death inhibitors of the malarial parasite plastid, 96 hour incubation
# COND: P. falciparum luciferase reporter growth; series mostly up to 28.7 µM
Out of some 320,000 compounds screened, about 22,000 (6.9%) were called active. Inconclusive results (about 27%) are left out. Calls follow the shape of the dose curve; as a rule, active = well fitted inhibition curve with a large enough effect; inconclusive = small, poorly fitted or top-dose-only effect, or another doubt; inactive = no such curve, though single readings can be large or run the other way. The sample as a whole holds a higher share of actives than the screen did.
One label from this list, please: Yes (active), No (inactive)

Solved entries:
molecule=CCc1ccc(-c2nn(-c3ccccc3)cc2CSC(=N)N)cc1 assigned_category=No
molecule="O=C(NCCc1ccccc1)C(=O)NCC1OCCN1S(=O)(=O)c1cccs1 (stereo not drawn)" assigned_category=No
molecule=CCOCCCNC(=S)Nc1ccc2nc(N3CCN(CC)CC3)cc(C)c2c1 assigned_category=No
molecule=CCCN(CCC)c1nc2c(C)cccn2c(=O)c1/C=C1/SC(=S)N(Cc2ccco2)C1=O assigned_category=Yes

Now for another entry.
INPUT: Record lookup: outcome of this test for "COc1cc(OC)c(-n2c(C)cc(C=O)c2C)cc1Cl" ?
OUTPUT: Yes

* * *

# ASSAY OVERVIEW: Primary qHTS for delayed death inhibitors of the malarial parasite plastid, 96 hour incubation
# COND: P. falciparum luciferase reporter growth; series mostly up to 28.7 µM
Hit rate of the full screen: of about 320,000 compounds, about 22,000 (6.9%) were called active. Inconclusive results (about 27%) are left out. The call rests on the fitted dose curve; in most records, active means well fitted inhibition curve with a large enough effect; inconclusive means small, poorly fitted or top-dose-only effect, or another doubt; inactive means no such curve, though single readings can be large or run the other way. What follows is part of a selection rich in actives, with near analogues and random picks from the rest.
Field 'call' accepts active, inactive

These recorded examples may help you get a feel for the data.
compound=COC(=O)c1ccc(OC(=O)c2cnccn2)cc1 assigned_category=inactive
compound="COc1ccccc1C(=O)NC(CCSC)C(=O)NNC(=O)c1csc(N2CCOCC2)n1 (centres undefined)" assigned_category=inactive
compound=CCCC(O)(CCC)C(=O)NN(C(=O)CCl)c1cccc(C)c1 assigned_category=active
compound=O=[N+]([O-])c1ccc2oc(-c3cccc(O)c3)nc2c1 assigned_category=inactive
compound=CC[C@@H](C)[C@H](NC(=O)CCc1c(C)c2cc3c4c(oc3c(C)c2oc1=O)CCCC4)C(=O)O assigned_category=inactive
compound=CCOc1ccc(S(=O)(=O)Nc2ccc(OC)nc2)cc1 assigned_category=inactive
compound=CN1CCN(C2=NCCO2)CC1 assigned_category=inactive
compound=COc1ccccc1CNC(=O)Cn1cc2c(n1)CCCC2 assigned_category=inactive
compound=CC1=CC(C)(C)NC(=S)N1NC(=O)c1ccccc1Cl assigned_category=inactive
compound=CCc1ccc2c(c1)C(c1ccc([N+](=O)[O-])cc1)=NNC(c1ccccc1)=N2 assigned_category=inactive

INPUT: Hi, do you know how CCCc1cc(=O)oc2c(C)c(OC(C)C(=O)NCC(O)c3ccccc3)ccc12 (centres undefined) came out in this test?
OUTPUT: inactive

INPUT: Query: recorded result category for "COc1ccc2c(c1)C(c1cccs1)=NNC(c1cccnc1)=N2" in this test
OUTPUT: inactive

INPUT: What did this assay record as the result for COc1ccccc1OCC(O)CN1CCOCC1 (centres undefined) ?
OUTPUT: inactive

INPUT: Would you mind telling me which call this test gave "CCOc1ccc(CCNC(=O)COC(=O)C2CCN(c3ccc(C(F)(F)F)cn3)CC2)cc1OCC" ?
OUTPUT: inactive
